Cited source: ChEMBL document CHEMBL5226346

Target: D(2) dopamine receptor (Homo sapiens)
Sequence (P14416 whole entry): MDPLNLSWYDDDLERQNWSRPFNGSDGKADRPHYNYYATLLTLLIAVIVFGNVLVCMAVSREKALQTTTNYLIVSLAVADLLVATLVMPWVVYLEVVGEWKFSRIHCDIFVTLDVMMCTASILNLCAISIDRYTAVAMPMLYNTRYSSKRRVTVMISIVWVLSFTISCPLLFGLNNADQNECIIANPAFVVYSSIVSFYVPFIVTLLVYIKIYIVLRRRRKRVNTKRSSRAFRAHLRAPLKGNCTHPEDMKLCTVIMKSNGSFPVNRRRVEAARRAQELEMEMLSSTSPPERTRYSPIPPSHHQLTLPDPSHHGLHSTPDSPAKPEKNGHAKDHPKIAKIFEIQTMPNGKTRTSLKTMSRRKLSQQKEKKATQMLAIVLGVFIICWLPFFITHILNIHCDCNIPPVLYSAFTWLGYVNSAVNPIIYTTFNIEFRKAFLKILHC
Experiment: Displacement of [3H]-(R)-(+)7-OH-DPAT from human dopamine D2 receptor expressed in HEK293 cell membranes incubated for 90 mins by microbeta scintillation counting analysis
ENDPOINT_NAME: Ki (nM)

a. CN(C[C@@H]1C[C@H]1CCNC(=O)c1cc2ccccc2[nH]1)[C@@H]1Cc2cccc3[nH]c(=O)n(c23)C1
b. C[C@H]1CO[C@@H](c2ccc(N)nc2)CN1CC(=O)N1CCC(CNC(=O)c2cc3ccccc3[nH]2)C1 (some centres undefined)
c. CN(C[C@H]1C[C@@H]1CCNC(=O)c1cc2ccccc2[nH]1)[C@@H]1Cc2cccc3[nH]c(=O)n(c23)C1
d. C[C@H]1CO[C@@H](c2ccc(N)nc2)CN1CCn1cc(CNC(=O)c2cc3ccccc3[nH]2)nn1
Sort the items above on Ki, descending. Give the labels in the order requested. d, b, c, a
(d: 13500 nM, b: 1870 nM, c: 49.1 nM, a: 9.56 nM)
